# TARGET OR SYSTEM: T1, DVL3, Q92997
# T1 sequence (Q92997 244-331, limits assumed, looked up): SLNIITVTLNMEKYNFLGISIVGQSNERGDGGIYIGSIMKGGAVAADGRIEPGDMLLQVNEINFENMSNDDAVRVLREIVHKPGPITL
# ASSAY COMMENT: holdup assay
# Design: key: below the threshold = too weak to quantify, mostly under pKd 3.1 to 4
# PROTOCOL CONDITIONS: plain residues with an end cap or a label only (N-terminal biotin on a linker: ado-ado)
RECORDED ENDPOINT: pKd

Recorded results for 5 binders are shown here.
{"BINDER": "HDDYFYHDEL [RCN2, Q14257]", "RECORDED ENDPOINT": "pKd", "OBSERVED MEASUREMENT": "below the threshold"}
{"BINDER": "THHRKIHTRV [ZNF599, Q96NL3]", "RECORDED ENDPOINT": "pKd", "OBSERVED MEASUREMENT": "below the threshold"}
{"BINDER": "SSSVNVSSNL [CXCR1, P25024]", "RECORDED ENDPOINT": "pKd", "OBSERVED MEASUREMENT": "below the threshold"}
{"BINDER": "PLPPEEESWV [GAS2L2, Q8NHY3]", "RECORDED ENDPOINT": "pKd", "OBSERVED MEASUREMENT": 4.01}
{"BINDER": "GQNMTVSVVI [PRLHR, P49683]", "RECORDED ENDPOINT": "pKd", "OBSERVED MEASUREMENT": "below the threshold"}

Please report the recorded pKd for STYCDYTIEI [FAM71C, Q8NEG0] .
4.01

Please report the recorded pKd for GVHSNDHSVV [LPAR1, Q92633] .
below the threshold

Please report the recorded pKd for SRPHTNETSL [MCC, P23508] .
below the threshold

Please report the recorded pKd for ELKAEDEVQI [DCHS2, Q6V1P9] .
below the threshold

Please report the recorded pKd for MQILSKPEFI [NPSR1, Q6W5P4] .
3.61
